Would you mind telling me the reported pIC50 of each entry?
Molecular target: endogenous, cell-bound CD73 on SK-MEL-28 cells (Homo sapiens (Human))
Sequence (P21589 27-574): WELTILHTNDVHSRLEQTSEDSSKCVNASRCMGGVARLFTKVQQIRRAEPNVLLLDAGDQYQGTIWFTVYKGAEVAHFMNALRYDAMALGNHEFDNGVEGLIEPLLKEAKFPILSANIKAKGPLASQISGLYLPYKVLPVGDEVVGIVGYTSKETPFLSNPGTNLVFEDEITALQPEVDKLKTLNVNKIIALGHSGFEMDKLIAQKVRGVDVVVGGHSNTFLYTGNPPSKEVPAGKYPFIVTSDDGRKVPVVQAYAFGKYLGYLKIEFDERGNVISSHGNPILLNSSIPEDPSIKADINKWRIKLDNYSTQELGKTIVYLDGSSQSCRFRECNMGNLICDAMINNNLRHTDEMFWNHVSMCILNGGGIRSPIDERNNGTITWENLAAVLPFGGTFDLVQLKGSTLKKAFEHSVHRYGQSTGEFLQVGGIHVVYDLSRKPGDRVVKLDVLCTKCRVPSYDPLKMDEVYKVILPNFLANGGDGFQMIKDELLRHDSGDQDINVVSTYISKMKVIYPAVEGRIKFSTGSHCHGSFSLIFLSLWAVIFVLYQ
Assay: Inhibition of endogenous, cell-bound CD73 enzyme activity in SK-MEL-28 cells (Malachite Green)
Conditions: 100 μM AMP, 30 minutes at room temperature
Description: The day before the experiment, 5000 cells were plated per well in a 96-well plate. Cells were washed twice with […] reaction buffer (20 mM HEPES, pH 7.4, 125 mM NaCl, 1 mM KCl, 2 mM MgCl2, 10 mM glucose) to remove residual inorganic phosphate. […] The concentration of inorganic phosphate was determined using a phosphate standard curve to determine IC50.
Formally, pIC50 is defined as -log10 of the concentration c, with c in mol/L.

Data request, read-out pIC50, for Nc1nc(Cl)nc2c1ncn2[C@@H]1O[C@H](COC(Cc2ccc(Cl)nc2)(C(=O)O)C(=O)O)[C@@H](O)[C@@H]1F 6.11

Proceed to Nc1nc(Cl)nc2c1ncn2[C@@H]1O[C@H](COC(Cc2ccc(-c3nnn[nH]3)cc2)(C(=O)O)C(=O)O)[C@@H](O)[C@@H]1F 6.01

Now the molecule N#Cc1ccc(CC(OC[C@H]2O[C@@H](n3cnc4c(N)nc(Cl)nc43)[C@@H](F)[C@@H]2O)(C(=O)O)C(=O)O)cc1F 6.00

Please answer likewise for Nc1nc(Cl)nc2c1ncn2[C@@H]1O[C@H](COC(Cc2ccc(C(=O)O)s2)(C(=O)O)C(=O)O)[C@@H](O)[C@@H]1F 5.88
